# ASSAY REMARKS: amyloid nucleation score (Sup35N fusion, yeast selection) (log enrichment); library NNK3; higher = more nucleation; inactive = no reads after selection;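 further: zero at mode of non-aggregating sequences after 7 days selection at 30°C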
READOUT LABEL: amyloid nucleation score

Check out these entries, answers already filled in.
[[record]]
substance = "GDSLWIFTAGIDCSYRLIFD"
recorded_measurement = "inactive"

[[record]]
substance = "LQRTWLKVFGASCFICDDFL"
recorded_measurement = 1.99

[[record]]
substance = "TRFTACGYRKSCYWWIVF"
recorded_measurement = "inactive"

[[record]]
substance = "MLLSSVPDCFSWMGLRFCGD"
recorded_measurement = "inactive"

[[record]]
substance = "SALKGLTRELSVRVY"
recorded_measurement = "inactive"


Input TRRPAQFVGPI . Output amyloid nucleation score: 0.645

Input FICILIISKGSIVPFFLRHR . Output amyloid nucleation score: inactive

Input YRLVSLYFVLLFFGA . Output amyloid nucleation score: inactive

Input RGNIWIHKK . Output amyloid nucleation score: 0.404
